What IC50 was measured for each of the following?
biological target: KRAS G12V (Homo sapiens, UniProt P01116+P62937, G12V); assay: Ras-Raf disruption / FRET / MOA assay (BRAF RBD); type: biochemical; conditions: Ras-Raf disruption, with Cyclophilin A; read-out: KRAS G12V FRET data IC50
Sequence (P01116 1-169 isoform P01116-2 G12V limits assumed): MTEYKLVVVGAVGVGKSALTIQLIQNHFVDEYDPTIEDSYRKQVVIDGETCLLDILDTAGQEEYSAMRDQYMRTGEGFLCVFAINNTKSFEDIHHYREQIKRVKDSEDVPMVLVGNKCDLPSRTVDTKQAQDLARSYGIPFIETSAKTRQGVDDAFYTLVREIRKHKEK
Sequence (P62937 whole entry): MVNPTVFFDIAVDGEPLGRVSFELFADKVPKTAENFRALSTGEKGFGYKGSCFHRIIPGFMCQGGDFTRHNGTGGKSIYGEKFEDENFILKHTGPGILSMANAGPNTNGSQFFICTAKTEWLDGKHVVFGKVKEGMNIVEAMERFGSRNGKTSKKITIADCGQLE

// worked examples, IC50 included
# MOLECULE, RESULT
rows = [
    ("CCn1c(-c2cccnc2[C@H](C)OC)c2c3cc(ccc31)-c1csc(n1)C[C@H](NC(=O)[C@H](C(C)C)N(C)C(=O)N1CCN(C(=O)[C@H]3CN3)C[C@H]1C)C(=O)N1CCC[C@H](N1)C(=O)OCC(C)(C)C2", "100 to 1000 nM"),
    ("CCn1c(-c2cccnc2[C@H](C)OC)c2c3cc(ccc31)-c1cc(O)cc(c1)C[C@H](NC(=O)[C@H](C(C)C)N(C)C(=O)[C@H]1CCN(S(=O)(=O)[C@H]3CN3C)C1)C(=O)N1CCC[C@H](N1)C(=O)OCC(C)(C)C2 (single isomer, unassigned)", "100 to 1000 nM"),
    ("CCn1c(-c2cnccc2COC)c2c3cc(ccc31)-c1cccc(c1)C[C@H](NC(=O)[C@H](C(C)C)N(C)C(=O)CCN=C=NCc1c(OC)cccc1OC)C(=O)N1CCC[C@H](N1)C(=O)OCC(C)(C)C2", "> 10000 nM"),
]

Query :: Reported IC50, molecule "CCn1c(-c2cccnc2[C@H](C)OC)c2c3cc(ccc31)-c1cc(O)cc(c1)C[C@H](NC(=O)[C@H](C(C)C)N(C)C(=O)[C@H]1CCCN(C(=O)[C@H]3CN3)C1)C(=O)N1CCC[C@H](N1)C(=O)OCC(C)(C)C2" : ____
Result :: 10 to 100 nM

---

target: KRAS WT (Homo sapiens, UniProt P01116+P62937); test: Disruption of BRAF RBD interaction with Ras (FRET / MOA assay, with Cyclophilin A); type: biochemical; details: KRAS WT; read-out: KRAS WT FRET data IC50
Sequence (P01116 1-169 isoform P01116-2 limits assumed): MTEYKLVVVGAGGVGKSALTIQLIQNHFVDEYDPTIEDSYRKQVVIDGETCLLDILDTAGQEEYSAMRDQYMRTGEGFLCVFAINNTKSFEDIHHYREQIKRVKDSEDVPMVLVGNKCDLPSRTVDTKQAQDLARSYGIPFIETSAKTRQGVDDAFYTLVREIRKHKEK
Sequence (P62937 whole entry): as the sequence (P62937 whole entry) above
Field: IC50. Provide a value for each of the compounds that follow.

These solved cases illustrate the format of a correct answer.
# COMPOUND, METRIC, RESULT
data = [
    ("CCn1c(-c2cccnc2[C@H](C)OC)c2c3cc(ccc31)-c1csc(n1)C[C@H](NC(=O)[C@H](C(C)C)N(C)C(=O)N1CC3(CN(C)CCO3)C1)C(=O)N1CCC[C@H](N1)C(=O)OCC(C)(C)C2 [Example A499]", "IC50", "1000 to 10000 nM"),
    ("CCn1c(-c2cccnc2[C@H](C)OC)c2c3cc(ccc31)-c1cccc(c1)C[C@H](NC(=O)[C@H](C(C)C)N(C)C(=O)[C@H]1CCN(C(=O)CN)C1)C(=O)N1CCC[C@H](N1)C(=O)OCC(C)(C)C2 [Example A105]", "IC50", "1000 to 10000 nM"),
    ("C=CC(=O)N1CCO[C@H]2CN(C(=O)N(C)[C@H](C(=O)N[C@H]3CN4CCC=C(C4)c4ccc5c(c4)c(c(-c4cccnc4[C@H](C)OC)n5CC)CC(C)(C)COC(=O)[C@@H]4CCCN(N4)C3=O)C(C)C)C[C@H]21 [Example A552]", "IC50", "100 to 1000 nM"),
]

For each of the compounds below, state IC50.
1. C=CC(=O)N1CC[C@H](C(=O)N(C)[C@H](C(=O)N[C@H]2Cc3cc(O)cc(c3)-c3ccc4c(c3)c(c(-c3c(CCOC)cccc3OC)n4CC)CC(C)(C)COC(=O)[C@@H]3CCCN(N3)C2=O)C(C)C)C1 [Example A080]
2. CCn1c(-c2cccnc2[C@H](C)OC)c2c3cc(ccc31)-c1cc(O)cc(c1)C[C@H](NC(=O)[C@H](C(C)C)N(C)C(=O)C1CN(C)C1)C(=O)N1CCC[C@H](N1)C(=O)OCC(C)(C)C2 (atropisomer, axis not shown) [Example A124]
3. CCn1c(-c2cccnc2[C@H](C)OC)c2c3cc(ccc31)-c1cc(O)cc(c1)C[C@H](NC(=O)[C@H](C(C)C)N(C)C(=O)C1COC1)C(=O)N1CCC[C@H](N1)C(=O)OCC(C)(C)C2 [Example A18]
4. CCn1c(-c2cccnc2[C@H](C)OC)c2c3cc(ccc31)-c1cc(O)cc(c1)C[C@H](NC(=O)[C@H](C(C)C)N(C)C(=O)[C@H]1CCN(C(=O)OC3COC3)C1)C(=O)N1CCC[C@H](N1)C(=O)OCC(C)(C)C2 [Example A204]
5. CCn1c(-c2cccnc2[C@H](C)OC)c2c3cc(ccc31)-c1csc(n1)C[C@H](NC(=O)[C@H](C(C)C)N(C)C(=O)N1CCN(C(=O)[C@H]3CCCN3C)CC1)C(=O)N1CCC[C@H](N1)C(=O)OCC(C)(C)C2 (atropisomer, axis not shown) [Example A595]

Result ::
1. > 10000 nM
2. 10 to 100 nM
3. 100 to 1000 nM
4. 10 to 100 nM
5. 100 to 1000 nM

Data credit: patent US20230233569A1
